system: MDR1; test: Permeability in MDCK cells expressing human MDR1 at 0.5 uM after 150 mins by LC-MS/MS analysis; assay type: ADME, cell-based, Canis lupus familiaris; settings: dog, read-out: permeability
Outcome Measure: Papp at 2.5 h, 0.5 µM

Prompt line: Quick one: Papp at 2.5 h, 0.5 µM of CC(=O)NC1C(=O)N=NN1CCC(C)C (stereo not drawn) ?
Response line: < 0.1 ×10⁻⁶ cm/s

Prompt line: Given the entry CC(C)CCN1N=NC(=O)C1NC(=O)c1cccnc1 (stereo not drawn) , report its measured Papp at 2.5 h, 0.5 µM.
Response line: < 0.1 ×10⁻⁶ cm/s

Prompt line: Which Papp at 2.5 h, 0.5 µM is listed for CNC(=O)C1C(=O)N=NN1CCC(C)C (stereo not drawn) ?
Response line: < 0.1 ×10⁻⁶ cm/s

###

// Imax lookup, one value per entry
target: Sortilin (Homo sapiens); experiment: Displacement of [3H]-neurotensin from human His6-tagged sortilin at 500 uM pretreated for 30 mins followed by [3H]-neurotensin addition after 6 hrs measured for 360 secs by SPA relative to control

CC(C)CN1CC(=O)N=N1 | 69%

Now look at this one.
Prompt line: Imax lookup needed for O=c1[nH]nc(Cc2ccccc2)o1 , thanks.
Response line: 54%
